All figures here come from ChEMBL document CHEMBL1122499.

# Tested on: Human alphaherpesvirus 1
# test.method.notes: Antiviral activity against herpes simplex virus type 1 (HSV-1) determined in baby hamster kidney cells
# Type: functional
# assay.conditions: Human alphaherpesvirus 1; read-out: MIC
Each record here notes measured MIC.

Below: 2 compounds and their reported MIC.
* COC(=O)/C=C(\C)c1cn([C@H]2C[C@H](O)[C@@H](CO)O2)c(=O)[nH]c1=O | > 100 µg/mL
* C/C(=C\Cl)c1cn([C@H]2C[C@H](O)[C@@H](CO)O2)c(=O)[nH]c1=O | > 100 µg/mL

Now for the compound whose MIC we want.
Problem: Which value of MIC has been reported for N#C/C=C/c1cn([C@H]2C[C@H](O)[C@@H](CO)O2)c(=O)[nH]c1=O in the records?
Result: > 25 µg/mL
